System: VPS34
Construct: gene PIK3C3
assay.setup: concentration: 1 μM, replicates: in singlicate; n = 1;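 further: KINOMEscan kinase panel screen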
readout.name: %Inh (%)
// note: answer is a bare numeric in %

Ask | Which %Inh is listed for COc1ccc(CNC(=O)NC2CCN(c3ccnc(Nc4cc(OC)c(OC)c(OC)c4)n3)C2)cc1 (stereo not drawn) [GSK1379748] ?
Reply | 7

Ask | Given the compound CC1=C(C(=O)Nc2cc3cn[nH]c3cc2F)C(c2ccc(C(F)(F)F)cc2)CC(=O)N1 (stereo not drawn) [GSK429286] , what is its reported %Inh?
Reply | 0

Ask | For the compound `Cn1ccc2ncnc(Oc3ccc(Nc4nc5ccccc5[nH]4)cc3)c21` , what %Inh is on record?
Reply | 0

Ask | So what does the record say about %Inh for `Cc1cccc(-c2nc(-c3ccc(S(C)(=O)=O)cc3)sc2-c2ccnc(NCCc3ccccc3)c2)c1` ?
Reply | 82

Ask | Given the entry CCCc1ccc(S(=O)(=O)NC2CCN(c3ccnc(Nc4ccc(F)cc4)n3)C2)cc1 (stereo not drawn) [GSK1379715] , report its measured %Inh.
Reply | 0

Ask | Bench note: what %Inh did CS(=O)(=O)c1ccc(-c2nc3n(c2-c2ccncc2)CCC3)cc1 [SKF-105942] show?
Reply | 0

Ask | Fill in: %Inh of `NC(=O)c1nnc2ccccc2c1N` is ___
Reply | 20

Ask | Which %Inh reading was recorded for the compound `O=C(O)COc1ncnc2cc(-c3ccc4[nH]ncc4c3)sc12` ?
Reply | 27

Ask | Any idea what its %Inh is? The compound is Cl.c1ccc(-c2n[nH]cc2-c2ccnc(-c3ccc(CN4CCOCC4)cc3)c2)nc1 [GW776245]
Reply | 0

###

Exercise: for every item that follows, state its recorded %Inh.
Test system: CIT
assay.setup: concentration: 1 μM, replicates: in singlicate; n = 1
Kindly provide the numeric value in % only, without the unit symbol.

Ask | Sample Cc1cccc(-c2cc(Nc3ccncc3)c3ccccc3n2)n1 [GSK223675] — what was its %Inh?
Reply | 23

Ask | Please report the recorded %Inh for O=C(Nc1n[nH]c2nc(-c3nccs3)c(Br)cc12)C1CCCC1 [SB-742609] .
Reply | 36

Ask | For CS(=O)(=O)c1ccc(-c2nc3n(c2-c2ccncc2)CCC3)cc1 [SKF-105942] , what is its reported %Inh?
Reply | 4

Ask | Recorded %Inh of COc1cc2nccc(Nc3ccc(NC(=O)c4ccc(C)cc4)c(O)c3)c2cc1OC.Cl [GW440132] , please.
Reply | 11

Ask | Please give the measured %Inh for this compound: COc1cccc(-c2cc(-c3c[nH]nc3-c3ccccn3)ccn2)c1 [GW680338]
Reply | 7

Ask | %Inh for CCn1c(-c2cccnc2O)nc2cnccc21 [SB-736715] ?
Reply | 0

Ask | Given C[C@@H]1CCCCN1c1cc(-c2ccc3c(N)n[nH]c3c2)nc(N)n1 [GSK2258759] , state its recorded %Inh.
Reply | 36

Ask | GET /values?readout=%Inh&item= COc1ccccc1-c1ccc2c(NC(=O)C3CC3)n[nH]c2n1 [SB-711239]
Reply | 22

Ask | Any idea what %Inh was measured for COc1cccc(NC(=O)NC2CCN(c3ccnc(Nc4ccc(F)cc4)n3)C2)c1 (stereo not shown) [GSK1379721] ?
Reply | 23

Ask | %Inh lookup needed for Cc1ccc(-c2cc(-c3c[nH]nc3-c3ccccn3)ccn2)cc1 [GW684088] , thanks.
Reply | 26

Ask | Return reported %Inh; argument: Cc1ccccc1-n1cnc2c(N)ncnc21 [SKF-97510]
Reply | 0

Ask | # %Inh lookup, item Nc1ncnc2[nH]c(-c3ccccc3)nc12 [AH5015]
Reply | 9

Ask | What %Inh value was documented for this compound, Cc1cccc(-c2nc(Nc3ccncc3)c3ccccc3n2)n1 [GW855857] ?
Reply | 91.1

Ask | # query: %Inh of entry O=S(=O)(c1ccc(-c2ccnc3[nH]ccc23)cc1)N1CCCC1 [GSK846226]
Reply | 36

Ask | Tell me the measured %Inh of CN1C(=O)C(Nc2ccc(Cl)c(C(=O)O)c2)=C(c2ccc(Cl)cc2)C1=O [SB-404290] , please.
Reply | 0

Ask | Param item = Cl.O=C(Nc1cccc(-c2nn3ncccc3c2-c2ccnc(Nc3cccnc3)n2)c1)c1c(F)cccc1F [GSK312879] ; retrieve measured %Inh.
Reply | 30

Ask | # input compound: `O=C(O)COc1ncnc2cc(-c3ccc4[nH]ncc4c3)sc12` ; wanted: its %Inh
Reply | 8

Ask | What value of %Inh has been recorded for this entry: O=C(Nc1n[nH]c2nc(-c3nccs3)c(Br)cc12)C1CC1 [SB-742251]
Reply | 3

Ask | Recorded %Inh for O=C(Nc1ccc2c(c1)OCO2)NC1CCN(c2ccnc(Nc3ccc(F)cc3)n2)C1 (stereo not shown) [GSK1379724] , please?
Reply | 23

Data origin: paper PMC5540273
